Kindly supply the reported PMA-induced TNFα release from U-937 cells, percent inhibition, 3 µg/ml values for the records listed here.
- assayed system: T1, human iRhom2, endogenously expressed (human, UniProt Q6PJF5 1-856)
- T1 sequence: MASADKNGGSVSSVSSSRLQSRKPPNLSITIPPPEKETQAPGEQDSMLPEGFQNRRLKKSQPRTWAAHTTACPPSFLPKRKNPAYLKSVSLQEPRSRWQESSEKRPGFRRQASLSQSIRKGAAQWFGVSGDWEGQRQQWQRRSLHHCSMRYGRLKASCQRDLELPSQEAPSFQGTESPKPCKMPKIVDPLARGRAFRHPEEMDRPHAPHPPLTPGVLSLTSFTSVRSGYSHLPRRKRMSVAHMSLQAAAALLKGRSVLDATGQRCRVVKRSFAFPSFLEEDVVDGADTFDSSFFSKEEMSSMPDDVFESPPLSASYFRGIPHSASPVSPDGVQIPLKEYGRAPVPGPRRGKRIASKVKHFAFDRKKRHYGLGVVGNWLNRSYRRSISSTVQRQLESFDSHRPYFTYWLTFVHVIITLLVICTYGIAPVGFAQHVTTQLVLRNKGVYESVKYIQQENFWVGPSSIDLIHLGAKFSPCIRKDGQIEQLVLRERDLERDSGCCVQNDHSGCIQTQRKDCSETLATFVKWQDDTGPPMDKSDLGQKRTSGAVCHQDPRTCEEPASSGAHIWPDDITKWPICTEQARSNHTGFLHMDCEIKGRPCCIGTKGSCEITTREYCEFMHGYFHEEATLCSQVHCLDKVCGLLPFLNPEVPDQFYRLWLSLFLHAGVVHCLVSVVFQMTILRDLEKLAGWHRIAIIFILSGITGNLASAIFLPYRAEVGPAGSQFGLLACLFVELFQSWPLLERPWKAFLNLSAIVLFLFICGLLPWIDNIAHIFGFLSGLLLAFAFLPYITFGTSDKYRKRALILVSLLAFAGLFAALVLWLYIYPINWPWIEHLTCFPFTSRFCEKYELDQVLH
- measurement protocol: cell-based or functional assay
Field: numeric (%). Do not append units.

Q: If you can, please state the reported PMA-induced TNFα release from U-937 cells, percent inhibition, 3 µg/ml value of chimeric antibody 44 (antibody, V domains shown) VH: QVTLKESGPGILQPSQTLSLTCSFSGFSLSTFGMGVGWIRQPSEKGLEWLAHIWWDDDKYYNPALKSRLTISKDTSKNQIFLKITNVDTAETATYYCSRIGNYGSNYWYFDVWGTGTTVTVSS VL: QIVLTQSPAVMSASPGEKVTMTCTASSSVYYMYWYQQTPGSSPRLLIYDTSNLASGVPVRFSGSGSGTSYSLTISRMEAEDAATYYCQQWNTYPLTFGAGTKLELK .
A: 89.2

Q: Now consider chimeric antibody 34 (antibody, V domains shown) VH: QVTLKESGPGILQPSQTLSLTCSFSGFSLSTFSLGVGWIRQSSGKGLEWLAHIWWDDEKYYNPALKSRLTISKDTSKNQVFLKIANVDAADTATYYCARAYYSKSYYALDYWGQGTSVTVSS VL: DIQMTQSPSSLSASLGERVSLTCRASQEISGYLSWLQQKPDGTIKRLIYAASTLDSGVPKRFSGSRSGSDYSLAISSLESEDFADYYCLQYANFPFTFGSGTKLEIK and answer again.
A: 87.4

Q: Now this one: chimeric antibody 42 (antibody, V domains shown) VH: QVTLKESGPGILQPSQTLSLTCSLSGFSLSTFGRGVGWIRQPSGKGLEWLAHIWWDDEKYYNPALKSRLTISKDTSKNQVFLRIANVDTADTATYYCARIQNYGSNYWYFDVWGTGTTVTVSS VL: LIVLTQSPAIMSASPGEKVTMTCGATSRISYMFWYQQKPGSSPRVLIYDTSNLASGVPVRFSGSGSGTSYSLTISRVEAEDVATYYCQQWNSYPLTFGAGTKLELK
A: 96.5

Q: Now the same for chimeric antibody 16 (antibody, V domains shown, chimeric version of clone #16, made in CHO cells, detected with anti-human IgG; also called ch16; chl6 (so in the source)) VH: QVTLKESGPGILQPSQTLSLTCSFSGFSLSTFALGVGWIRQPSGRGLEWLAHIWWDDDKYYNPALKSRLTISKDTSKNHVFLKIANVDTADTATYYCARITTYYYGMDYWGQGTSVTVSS VL: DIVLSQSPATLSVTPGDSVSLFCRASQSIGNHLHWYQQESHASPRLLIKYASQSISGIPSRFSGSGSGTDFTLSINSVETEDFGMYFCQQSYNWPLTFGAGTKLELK
A: 93.7

Q: Similarly, antibody 44 (antibody, V domains shown, mouse IgG, kappa light chain; also called clone #44; purified antibody 44) VH: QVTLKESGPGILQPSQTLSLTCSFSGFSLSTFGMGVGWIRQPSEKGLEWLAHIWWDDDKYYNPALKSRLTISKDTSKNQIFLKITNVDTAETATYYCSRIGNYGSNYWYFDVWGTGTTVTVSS VL: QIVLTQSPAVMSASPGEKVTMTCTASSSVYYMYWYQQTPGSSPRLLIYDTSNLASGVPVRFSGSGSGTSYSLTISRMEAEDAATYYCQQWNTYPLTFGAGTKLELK ?
A: 86.3
